Data origin, for the record: paper PMC6061410

Experiment: Pharmacokinetics after single and multiple doses, part 1
Format: in vivo, human
Conditions: human, plasma, oral, 25 mg, Cmax, elderly, 25 mg QD, single dose, gMean (%CV)
QUANTITY NAME: Cmax (nM)

[
  {
    "SMILES STRING": "C[C@@H](Oc1ccc(S(C)(=O)=O)cc1C(=O)N1C[C@@H]2C[C@]2(c2cc(C(F)(F)F)on2)C1)C(F)(F)F",
    "READOUT VALUE": 235
  }
]

====

Assay: Pharmacokinetics after single and multiple doses, part 1
Type: in vivo, human
Details: human, plasma, oral, 10 mg, AUCτ,ss, young, 10 mg QD, multiple dose, gMean (%CV)

[
  {
    "COMPOUND": "C[C@@H](Oc1ccc(S(C)(=O)=O)cc1C(=O)N1C[C@@H]2C[C@]2(c2cc(C(F)(F)F)on2)C1)C(F)(F)F [BI 425809]",
    "AUC (µM·h)": 3.87
  }
]

====

Assay: Pharmacokinetics after single and multiple doses, part 1
Type: in vivo, human
Details: human, plasma, oral, 75 mg, tmax, young, 75 mg BID, single dose, median and range (minimum, maximum)

[
  {
    "SMILES STRING": "C[C@@H](Oc1ccc(S(C)(=O)=O)cc1C(=O)N1C[C@@H]2C[C@]2(c2cc(C(F)(F)F)on2)C1)C(F)(F)F",
    "Tmax": "4.02 h"
  }
]

====

Assay: Pharmacokinetics after single and multiple doses, part 1
Assay type: in vivo, human
Conditions: human, plasma, oral, 75 mg, tmax,ss, young, 75 mg QD, multiple dose, median and range (minimum, maximum)
QUANTITY NAME: Tmax (h)

[
  {
    "SMILES STRING": "C[C@@H](Oc1ccc(S(C)(=O)=O)cc1C(=O)N1C[C@@H]2C[C@]2(c2cc(C(F)(F)F)on2)C1)C(F)(F)F",
    "READOUT UNIT": "h",
    "READOUT VALUE": 4.5
  }
]

====

Experiment: Pharmacokinetics after single and multiple doses, part 1
Type: in vivo, human
Conditions: human, plasma, oral, 50 mg, AUCτ,ss, young, 50 mg QD, multiple dose, gMean (%CV)
QUANTITY NAME: AUC (µM·h)

[
  {
    "SMILES STRING": "C[C@@H](Oc1ccc(S(C)(=O)=O)cc1C(=O)N1C[C@@H]2C[C@]2(c2cc(C(F)(F)F)on2)C1)C(F)(F)F",
    "READOUT UNIT": "µM·h",
    "READOUT VALUE": 14.2
  }
]

====

Assay: Pharmacokinetics after single and multiple doses, part 1
Type: in vivo, human
Conditions: human, plasma, oral, 25 mg, Cmax, young, 25 mg QD, single dose, gMean (%CV)

[
  {
    "MOLECULE": "C[C@@H](Oc1ccc(S(C)(=O)=O)cc1C(=O)N1C[C@@H]2C[C@]2(c2cc(C(F)(F)F)on2)C1)C(F)(F)F [BI 425809]",
    "Cmax": "278 nM"
  }
]

====

Assay: Pharmacokinetics after single and multiple doses, part 1
Assay type: in vivo, human
Conditions: human, plasma, oral, 25 mg, AUCτ,ss, young, 25 mg QD, multiple dose, gMean (%CV)

[
  {
    "SMILES STRING": "C[C@@H](Oc1ccc(S(C)(=O)=O)cc1C(=O)N1C[C@@H]2C[C@]2(c2cc(C(F)(F)F)on2)C1)C(F)(F)F",
    "AUC": "10.6 µM·h"
  }
]
